Overview of recorded melting point for various compounds

COMPOUND	melting point
O=C(c1ccc(-c2ccccc2)cc1)C1CCN(CCc2c[nH]c3ccccc23)CC1	189 to 192 °C
COc1ccccc1C(=O)Nc1ccc(N2CCOCC2)cc1C(C)=O	158 to 160 °C
c1nc(Cc2ccc3c(c2)COCO3)c[nH]1	145 °C
CCOc1nn(-c2cc(C(F)(F)F)ccn2)cc1CCCOc1ccc(CCC(=O)O)cc1OC	111 to 112 °C
CN(C)CCCC1(O)c2ccccc2C=Cn2cc(C#N)cc21 (configuration not stated)	123 to 126 °C
COc1cc(CCCC2OC(=O)NC2=O)cc(OC)c1OCc1coc(/C=C/c2ccccc2)n1 (configuration not stated)	94 to 95 °C
O=S(=O)(Cl)c1ccc2c(c1)oc1ccccc12	142 to 144 °C

====

Overview of recorded melting point for various molecules

MOLECULE	melting point
CN(Cc1c2ccccc2cc2ccccc12)C(=O)Nc1ccccc1CCc1cc(C(C)(C)C)c(O)c(C(C)(C)C)c1	205 to 206 °C
CC(=O)Nc1ccc(CNC(=O)c2cccnc2Oc2ccc(F)cc2)cc1	128 to 130 °C
O=C(NNS(=O)(=O)c1ccccc1)c1ccc(-c2ccccc2)cc1	216 to 219 °C
CN1CCC(=C2c3ccccc3Sc3ccc(C(=O)O)cc32)CC1	319 to 323 °C
CC(C)c1ccc(CCC(O)(P(=O)(O)O)P(=O)(O)O)cc1	174 °C
CCNC(=O)n1nc(Oc2c(Cl)cc(C(F)(F)F)cc2Cl)cc1CC(=O)OCC	100 to 102 °C
O=C1NCN(c2ccc(F)c(Cl)c2)C12CCN(C1CCC(c3ccc(F)cc3)(c3ccc(F)cc3)CC1)CC2	201 to 203 °C
Cn1c(C(F)(F)F)c(-c2ccc(C[C@H](NC(=O)c3c(F)cccc3C(F)(F)F)C(=O)O)cc2)c(=O)n(C)c1=O	122 to 125 °C
O=C(Nc1cccc(C(F)(F)F)c1)Nc1ccc(Oc2ncnc3cc[nH]c23)cc1Cl	316 to 319 °C
CN(CC=C(F)C(F)(F)C(F)(F)F)CCCCCC1Cc2cc(O)ccc2C2C(F)CC3(C)C(O)CCC3C12 (stereo unspecified)	122 °C
CCn1c(=O)n(C)c(=O)c2c(C(=O)N3C[C@](C)(O)CO3)c(Cn3c(C)nc(Cl)c3Cl)sc21	130 to 133 °C
CCOC(=O)c1c(C(F)(F)F)nn(-c2c(Cl)cc(Cl)cc2Cl)c1C	95 to 96 °C
CCC1(Cl)C(=O)c2c(cc(OCC(=O)O)c(Cl)c2Cl)C1c1ccccc1 (stereo unspecified)	190 to 192 °C
COC(=O)C1=C(c2ccc3c(c2)OCO3)c2ccc(OCc3ccccc3)cc2C1=O	140 to 141 °C
CC(C)(NC(=O)c1cc2c(n(CC3CCCCC3)c1=O)CCCCCC2)C(=O)O[C@H]1CO[C@H](c2ccccc2)OC1	166 to 168 °C
CCn1c(=O)ccc2cnc(Nc3ccc(N4CCOCC4)cc3)nc21	227 to 228 °C

====

MEASUREMENT LABEL: melting point

MOLECULE	RESULT
COc1ccc(C2CCC(=O)N2c2ccc(OC)cc2)cc1 (centres undefined)	91.5 to 92.5 °C
CC(=O)n1c(-c2ccc(C#N)cc2)cc2ccccc21	158 to 160 °C
Cc1ccc(C2OC(=O)NC2=O)s1 (centres undefined)	108 to 109 °C
CCCCCc1cnc(-c2ccc(C#N)cc2)nc1	69.4 to 70.8 °C
CCn1ncc2c(NCc3cccc(O)c3)c3ccccc3nc21	> 240 °C
CN(c1cccc2cc(C3=NCC(CN4CCS(=O)CC4)S3)[nH]c12)S(=O)(=O)c1cccs1 (centres undefined)	204 °C
Fc1ccc2c(CCN=c3sc4ccccc4s3)c[nH]c2c1	193 °C
CCOC(=O)c1ccc2c(O)c(C(=O)OCC)c(=O)n(C)c2n1	174 to 175 °C
CCC1(CCCCN2CCc3sccc3C2)C(=O)Nc2ccc(C)cc21 (centres undefined)	138 to 140 °C
CC(C)Oc1ccc2nc3ccc(C(=O)O)cn3c(=O)c2c1	256 to 267 °C
Cn1ccc2cc(N3Cc4ccc(OC(F)(F)C(F)Cl)cc4C3=O)ccc21 (centres undefined)	200 to 205 °C
CC(C)(C)n1ncc(C(=O)O)c1Cl	132 to 134 °C
Cc1cc(C(=O)c2ccc(O)cc2)ccc1[N+](=O)[O-]	146 to 148 °C
CCOC(=O)C1=C(C)NN=C(CC)C1c1ccc(Cl)cc1 (centres undefined)	111 °C
CCOC(=O)C(=C1CCCN1C)c1ccc(OC)cc1	81 to 82 °C
C=CCc1c2n(c3ccccc13)C(=O)C(=Cc1ncn(C(c3ccccc3)(c3ccccc3)c3ccccc3)c1C)CC2	211 to 214 °C
COc1cc(N=C(NC#N)Oc2ccccc2)cc(C(F)(F)F)c1	168 to 170 °C
C#CCOc1ccc(-c2nc3cnncc3[nH]2)c(OC)c1	224 °C
COc1ccc(OC)c2c1CCC(O)(CC(=O)O)C2 (centres undefined)	112 to 114 °C
CCOC(=O)Nc1ccn2cc(C)nc2c1Br	137 to 138 °C
COC(=O)C(Oc1ccc(Cl)c2c1CCCC2)c1ccc(Oc2ccc(Cl)cc2)cc1 (centres undefined)	87.5 to 90 °C
C[Si](C)(C)CCOc1ccc(N)cn1	59 to 61 °C
c1cncc(-c2cccc(-n3cnc4cc(-c5ccoc5)cnc43)c2)c1	191 to 192 °C
CCOC(=O)/C=C/C=C(c1cccc([N+](=O)[O-])c1)c1cccc([N+](=O)[O-])c1	105 to 106 °C
CCOC(=O)c1cnn(-c2cccc(S(=O)(=O)N(C)C)n2)c1S(N)(=O)=O	102 to 104 °C
CCCCCCCCCCCCC(=O)/C=C/C(=O)O	97.5 to 98.5 °C
O=C(Nc1cccc(S(=O)(=O)N2CCOCC2)c1)c1cnn2c(C(F)F)cc(-c3ccc(Cl)c(Cl)c3)nc12	231 °C
O=C(c1ccc(-c2ccc(Cl)cc2)cc1)C(O)O	275 to 285 °C
Cc1ccc2c(c1)c(-c1ccc(F)cc1)c(Cl)n2C1CCN(CCN2CCN(C(C)C)C2=O)CC1	127 to 130 °C

====

MEASUREMENT LABEL: melting point

MOLECULE	RESULT
Cc1cc(C(=O)c2[nH]c3cc(Cl)ccc3c2N)ccc1Cl	142 to 143 °C
CC1(CNC(=O)C(F)(F)F)CN(c2cc3c(cc2F)c(=O)c(C(=O)O)cn3C2CC2)C1	265 to 272 °C
Cc1ccccc1-c1nc(Cl)c2ccccc2n1	103 to 104 °C
Oc1cc2cc(-c3ccccc3Cl)sc2c(Cl)c1Cl	174 to 175 °C
C=CCN1CC(c2ccccc2)=C(OCCN(C)C)C1=O	115 to 117 °C
COc1cc(C(=O)CBr)cc(OC)c1OC(C)=O	124 to 126 °C
CCCCOc1c(CNC(=O)OC(C)(C)C)n(CC(C)C)c(=O)c2ccc(O)cc12	185 to 186 °C
CCCOc1ccccc1C1N=C2N=NC=C2C(=O)N1 (stereo not given)	182 to 184 °C
CCOc1cnc2nc(SCc3ccccc3)nn2c1	139 to 140 °C
CCOC(=O)CCCNC(=O)c1ccc2c(c1)C=CC(C)(C)O2	88 to 89 °C
Cc1oc(-c2ccccc2)nc1C(=O)c1cc2cc(Br)ccc2o1	212 to 213 °C
O=c1n(CCN2CCN(c3ccc4cc[nH]c4c3)CC2)c2ccccc2n1C1=CCCCC1	171 to 173 °C
C=CCNc1nc(-c2ccc(=O)n(C(C)C)n2)c(-c2ccccc2)nc1N	208 to 210 °C
CCCCCC(O)C=CC1C(O)CC(O)C1CCCCCCC(=O)O (stereo not given)	98 to 100 °C
Cc1cc(Nc2cncc(NC3CCCCC3)n2)n[nH]1	194 to 196 °C
CN1CC[C@]2(c3cccc(O)c3)CC(=O)CC[C@@H]2C1 (relative stereo)	175 °C
CSc1c(C)c(-c2ccc(Cl)cc2Cl)nn1C	65 to 66 °C
Cn1c(-c2ccc(OCC(O)CNC(C)(C)C)cc2)cc2ccccc2c1=O (stereo not given)	130 to 132 °C
Cc1nc2cccc(OCC(C)(C)C(=O)NCC3CCC3)c2c(N)c1C(=O)O	170 to 172 °C
CC(=O)Nc1cc(C)cc(OCc2ccccc2)c1C	139 to 140 °C
Brc1ccc(C2=NOCCS2)cc1	114 to 115 °C
CC1Cc2c(cc(C(C)(C)C)c(O)c2C(C)(C)C)S1 (stereo not given)	96.7 °C
CCN1C(=O)C(C)(C)C(=O)N(C)c2cc(OCCCn3cc(I)c(=O)c4ccccc43)ccc21	97 to 106 °C
Fc1ccc(C2OC3(CCNCC3)N3CCCCC23)cc1 (stereo not given)	112 to 114 °C
CC(C)[C@@H]1OC(=O)N[C@@H]1C(=O)OCc1ccccc1	99 to 101 °C
CCc1cccc2c3c([nH]c12)C(CC)(CC(=O)OC)OCC3=O (stereo not given)	187 to 189 °C
O=C(CCc1ccccc1)N[C@H](Cc1cccc(Oc2ccccc2)c1)[C@@H](O)c1ccc(F)cc1 (racemic)	91 to 93 °C
CCOC(=O)c1ccc2c(c1)C=C(n1ccnc1)CC2	113 to 116 °C
COc1ccc2c(c1)OCC(c1ccc(F)cc1)C2c1ccc(OCCN2CCCCC2)cc1 (stereo not given)	93.5 to 94.5 °C
CC(=O)Nc1nc(CO)c(Cl)s1	145 to 146 °C
COc1ccc2ncc([N+](=O)[O-])c(Nc3ccccc3Cl)c2c1	163 to 165 °C
CCCOc1cc(C(=O)O)cc(N)c1-c1ccccc1	101 to 102 °C
COCCC1(C(=O)N[C@@H](Cc2ccc(NC(=O)c3c(Cl)cccc3Cl)cc2)C(=O)OC)CCCC1	85 to 87 °C
Cc1cc(NC(=O)CCc2cccs2)cc(C)c1O	158 to 159 °C
CCC(=O)NC1=NN(c2ccccc2)C(c2ccccc2)C1 (stereo not given)	148 °C
